TEST TARGET: HLA-DR4 (DRB1*0401) (human)
TEST DETAILS: cell-based or functional assay
MEASURED ENDPOINT: T-cell line 2 proliferation, SI at 5 µg peptide/ml
Hey, just the number and the unit after it is fine.

>>> value_observed("VFFAEDVGSNKGAII [Aβ18-32 peptide]")
"6.1 SI"

Return reported T-cell line 2 proliferation, SI at 5 µg peptide/ml values for all items listed beneath this line.
1. LVFFAEDVGSNKGAI [Aβ17-31 peptide]
2. QKLVFFAEDVGSNKGAIIGLMVGGVVIA [Aβ15-42 peptide]
3. KLVFFAEDVGSNKGA [Aβ16-30 peptide]

Result:
["6.2 SI", "7.8 SI", "6.4 SI"]
